# tested target: T1, Mutant Human HTT Exon 1 48Q (GST) (human)
# T1 construct: recombinant His- and GST-tagged fusion; also called HTT Exon 1 Q48; 48Q HTT Exon-1
# T1 sequence (chain, as listed by the source mutant limits assumed): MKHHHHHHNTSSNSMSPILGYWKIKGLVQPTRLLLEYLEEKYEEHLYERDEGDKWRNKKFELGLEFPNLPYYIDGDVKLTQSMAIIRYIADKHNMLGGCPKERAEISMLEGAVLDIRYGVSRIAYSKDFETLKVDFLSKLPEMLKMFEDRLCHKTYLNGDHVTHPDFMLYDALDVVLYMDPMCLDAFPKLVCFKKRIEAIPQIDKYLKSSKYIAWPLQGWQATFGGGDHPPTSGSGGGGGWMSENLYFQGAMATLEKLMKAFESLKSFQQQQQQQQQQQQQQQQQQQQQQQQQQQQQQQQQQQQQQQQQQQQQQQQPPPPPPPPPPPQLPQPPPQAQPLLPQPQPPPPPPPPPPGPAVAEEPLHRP
# assay notes: HTT sandwich ELISA, experiment 2 (400 nM starting concentration)

{"binder": "ATL_0006205 (antibody, IgG1, V domains shown, IgG1 format; also called ATL_6205) VH: EVQLVESGGGLVKPGGSLRLSCAASGFTFNKAWMSWVRQAPGKGLEWVGRIKSGIDAGTTDYAAPVKGRFTISRDDSKNTLYLQMNSLKTEDTAVYWCVPPPYYYYYGLDVWGQGTTVTVSS VL: QSALTQPRSVSGSPGQSVTISCTGTSSDVGSYNLVSWYQQHPGKAPKLMIYEVNKRPSGVPDRFSGSKSGATASLTISGLQAEDEADYYCVSYAGTANVFGTGTKVTVL", "EC50": "16.4 nM"}
{"binder": "ATL_0006194 (antibody, V domains shown, expressed in IgG1 format; also called ATL_6194; ATL6194) VH: EVQLVESGGGLVKPGGSLRLSCAASGFTFNKAWMSWVRQAPGKGLEWVGRIKSGIDAGTTDYAAPVKGRFTISRDDSKNTLYLQMNSLKTEDTAVYYCVPPPYYYYYGLDVWGQGTTVTVSS VL: QSALTQPRSVSGSPGQSVTISCTGTSSDVGSYNLVSWYQQHPGKAPKLMIYEVNKRPSGVPDRFSGSKSGATASLTISGLQAEDEADYYCVSYAGTANVFGTGTKVTVL", "EC50": "14 nM"}
{"binder": "ATL_0006202 (antibody, IgG1, V domains shown, IgG1 format; also called ATL_6202) VH: EVQLVESGGGLVKPGGSLRLSCAASGFTFNKAWMSWVRQAPGKGLEWVGRIKSGIDAGTTDYAAPVKGRFTISRDDSKNTLYLQMNSLKTEDTAVYYCSPPPFYYYYGLDVWGQGTTVTVSS VL: QSALTQPRSVSGSPGQSVTISCTGTSSDVGSYNLVSWYQQHPGKAPKLMIYEVNKRPSGVPDRFSGSKSGATASLTISGLQAEDEADYYCVSYGGTENVFGTGTKVTVL", "EC50": "13.5 nM"}
{"binder": "ATL_0006195 (antibody, V domains shown, expressed in IgG1 format; also called ATL_6195) VH: EVQLVESGGGLVKPGGSLRLSCAASGFTFNKAWMSWVRQAPGKGLEWVGRIKSGIDAGTTDYAAPVKGRFTISRDDSKNTLYLQMNSLKTEDTAVYYCTPPPYYYYYGLDVWGQGTTVTVSS VL: QSALTQPRSVSGSPGQSVTISCTGTSSDVGSYNLVSWYQQHPGKAPKLMIYEVNKRPSGVPDRFSGSKSGATASLTISGLQAEDEADYYCGSYAGTANVFGTGTKVTVL", "EC50": "14.7 nM"}
{"binder": "ATL_0006200 (antibody, V domains shown, expressed in IgG1 format; also called ATL_6200) VH: EVQLVESGGGLVKPGGSLRLSCAASGFTFNKAWMSWVRQAPGKGLEWVGRIKSGIDAGTTDYAAPVKGRFTISRDDSKNTLYLQMNSLKTEDTAVYYCVPPPYYYYYGLDVWGQGTTVTVSS VL: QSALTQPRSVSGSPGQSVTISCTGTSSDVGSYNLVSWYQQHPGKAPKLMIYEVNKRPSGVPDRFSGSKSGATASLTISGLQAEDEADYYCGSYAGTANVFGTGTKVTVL", "EC50": "9.75 nM"}
